Numbers sourced from ChEMBL document CHEMBL3763016.

# TESTED_ON: Sucrase-isomaltase, intestinal (Rattus norvegicus)
# Sequence (P23739 1-1013 limits assumed): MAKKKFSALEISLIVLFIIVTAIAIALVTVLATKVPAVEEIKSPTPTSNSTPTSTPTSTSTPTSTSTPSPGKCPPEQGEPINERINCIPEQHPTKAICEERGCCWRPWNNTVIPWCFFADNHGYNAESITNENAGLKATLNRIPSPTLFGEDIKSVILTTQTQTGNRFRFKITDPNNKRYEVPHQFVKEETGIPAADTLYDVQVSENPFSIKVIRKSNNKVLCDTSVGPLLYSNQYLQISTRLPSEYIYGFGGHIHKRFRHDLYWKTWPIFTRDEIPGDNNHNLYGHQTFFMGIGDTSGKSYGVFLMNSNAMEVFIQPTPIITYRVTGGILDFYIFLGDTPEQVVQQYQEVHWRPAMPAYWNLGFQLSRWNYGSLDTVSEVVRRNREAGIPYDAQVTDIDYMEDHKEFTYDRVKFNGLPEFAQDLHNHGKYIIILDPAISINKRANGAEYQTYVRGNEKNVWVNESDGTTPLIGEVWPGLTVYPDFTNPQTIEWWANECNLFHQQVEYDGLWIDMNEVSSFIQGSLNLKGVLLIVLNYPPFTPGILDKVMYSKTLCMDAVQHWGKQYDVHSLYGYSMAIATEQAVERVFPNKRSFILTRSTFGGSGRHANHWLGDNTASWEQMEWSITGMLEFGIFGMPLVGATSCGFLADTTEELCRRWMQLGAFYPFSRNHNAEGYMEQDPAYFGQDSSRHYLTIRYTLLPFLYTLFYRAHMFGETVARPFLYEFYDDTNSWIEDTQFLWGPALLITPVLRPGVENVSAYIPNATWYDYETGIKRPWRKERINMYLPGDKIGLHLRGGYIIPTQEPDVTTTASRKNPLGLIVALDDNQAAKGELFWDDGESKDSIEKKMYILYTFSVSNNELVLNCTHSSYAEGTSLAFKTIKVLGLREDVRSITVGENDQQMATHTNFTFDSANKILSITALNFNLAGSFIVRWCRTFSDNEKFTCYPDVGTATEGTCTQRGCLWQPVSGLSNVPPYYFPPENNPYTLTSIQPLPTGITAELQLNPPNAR
# Sequence (P23739 1014-1841 limits assumed): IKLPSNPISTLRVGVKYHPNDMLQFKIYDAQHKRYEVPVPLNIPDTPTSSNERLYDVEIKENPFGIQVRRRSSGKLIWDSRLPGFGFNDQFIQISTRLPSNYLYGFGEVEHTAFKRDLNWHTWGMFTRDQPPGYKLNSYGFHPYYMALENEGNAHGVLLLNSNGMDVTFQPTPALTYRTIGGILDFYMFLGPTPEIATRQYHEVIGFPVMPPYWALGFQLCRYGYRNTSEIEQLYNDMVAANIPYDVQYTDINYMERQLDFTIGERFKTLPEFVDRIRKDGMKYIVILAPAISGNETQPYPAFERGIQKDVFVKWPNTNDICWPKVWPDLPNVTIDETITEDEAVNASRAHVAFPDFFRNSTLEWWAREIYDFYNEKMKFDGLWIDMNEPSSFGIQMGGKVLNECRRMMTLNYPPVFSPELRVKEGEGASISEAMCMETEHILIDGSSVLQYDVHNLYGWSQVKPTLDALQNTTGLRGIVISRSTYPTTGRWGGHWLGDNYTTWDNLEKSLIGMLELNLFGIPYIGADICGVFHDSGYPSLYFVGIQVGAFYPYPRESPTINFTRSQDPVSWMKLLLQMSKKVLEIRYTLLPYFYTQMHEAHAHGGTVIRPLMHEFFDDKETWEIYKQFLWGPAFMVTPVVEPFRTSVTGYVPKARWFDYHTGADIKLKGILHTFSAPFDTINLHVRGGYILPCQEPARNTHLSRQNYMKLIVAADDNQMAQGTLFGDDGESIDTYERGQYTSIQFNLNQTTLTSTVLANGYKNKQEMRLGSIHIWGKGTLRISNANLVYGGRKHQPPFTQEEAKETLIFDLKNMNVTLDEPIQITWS
EXPERIMENTAL_ENDPOINT: Ki (nM)

[A] OC[C@@H]1[C@@H](O)[C@H](O)C[S+]1C[C@@H](O)[C@H](OCc1cccc(C(F)(F)F)c1)[C@H](O)[C@@H](O)CO.[Cl-] (some centres not stated)
[B] OC[C@@H]1[C@@H](O)[C@H](O)C[S+]1C[C@@H](O)[C@H](OCc1ccc(C(F)(F)F)cc1)[C@H](O)[C@@H](O)CO.[Cl-] (some centres not stated)
Query: Dear colleague, could you let me know whether A or B has the lower recorded Ki? Thanks. Answer by quoting the chosen item's label.
Response: A
(A: 354 nM, B: 786 nM)

----------
# ASSAY_PROCEDURE: Inhibition of rat intestinal maltase using maltose as substrate incubated for 30 mins by glucose-oxidase method
pIC50: −log10 of the molar value.
EXPERIMENTAL_ENDPOINT: pIC50

Some compounds with known pIC50 results, for comparison:
OC[C@@H]1[C@@H](O)[C@H](O)C[S+]1C[C@@H](O)[C@H](OCc1ccccc1Cl)[C@H](O)[C@@H](O)CO.[Cl-] (some centres not stated) ... 5.09
O=[N+]([O-])c1ccccc1CO[C@H]([C@H](O)[C@@H](O)CO)[C@H](O)C[S+]1C[C@@H](O)[C@H](O)[C@H]1CO.[Cl-] (some centres not stated) ... 5.46

[I] O=[N+]([O-])c1cccc(CO[C@H]([C@H](O)[C@@H](O)CO)[C@H](O)C[S+]2C[C@@H](O)[C@H](O)[C@H]2CO)c1 (some centres not stated)
[II] OC[C@@H]1[C@@H](O)[C@H](O)C[S+]1C[C@@H](O)[C@H](O)[C@H](O)[C@@H](O)CO (some centres not stated)
Query: Dear colleague, could you let me know whether I or II has the lower recorded pIC50? Thanks. Answer by quoting the chosen item's label.
Response: I
(I: 5.17, II: 5.70)

[I] OC[C@@H]1[C@@H](O)[C@H](O)C[S+]1C[C@@H](O)[C@H](OCc1cccc(Cl)c1)[C@H](O)[C@@H](O)CO (some centres not stated)
[II] CCO[C@H]([C@H](O)[C@@H](O)CO)[C@H](O)C[S+]1C[C@@H](O)[C@H](O)[C@H]1CO (some centres not stated)
[III] OC[C@@H]1[C@@H](O)[C@H](O)C[S+]1C[C@@H](O)[C@H](OCc1ccccc1C(F)(F)F)[C@H](O)[C@@H](O)CO.[Cl-] (some centres not stated)
[IV] OC[C@@H]1[C@@H](O)[C@H](O)C[S+]1C[C@@H](O)[C@H](OCc1ccc(Cl)cc1)[C@H](O)[C@@H](O)CO (some centres not stated)
[V] O=[N+]([O-])c1ccc(CO[C@H]([C@H](O)[C@@H](O)CO)[C@H](O)C[S+]2C[C@@H](O)[C@H](O)[C@H]2CO)cc1 (some centres not stated)
Query: Returns the items ordered by pIC50, from maximum to minimum. To answer, write out the labels according to the requested order.
Response: III, I, II, IV, V

[P] OC[C@@H]1[C@@H](O)[C@H](O)C[S+]1C[C@@H](O)[C@H](OCc1ccccc1)[C@H](O)[C@@H](O)CO (some centres not stated)
[Q] OC[C@@H]1[C@@H](O)[C@H](O)C[S+]1C[C@@H](O)[C@H](OCc1ccc(C(F)(F)F)cc1)[C@H](O)[C@@H](O)CO.[Cl-] (some centres not stated)
Query: When their pIC50 values are compared, which is larger, P or Q ? Answer by quoting the chosen item's label.
Response: P
(P: 5.28, Q: 5.00)

----------
# ASSAY_PROCEDURE: Competitive inhibition of rat intestinal maltase using maltose as substrate incubated for 30 mins by Lineweaver-Burk plot analysis
EXPERIMENTAL_ENDPOINT: Ki (µg/mL)

Some molecules with known Ki results, for comparison:
OC[C@@H]1[C@@H](O)[C@H](O)C[S+]1C[C@@H](O)[C@H](OCc1ccc(C(F)(F)F)cc1)[C@H](O)[C@@H](O)CO.[Cl-] (stereo not given in full) ... 0.74
OC[C@@H]1[C@@H](O)[C@H](O)C[S+]1C[C@@H](O)[C@H](OCc1cccc(C(F)(F)F)c1)[C@H](O)[C@@H](O)CO.[Cl-] (stereo not given in full) ... 0.66

[a] OC[C@@H]1[C@@H](O)[C@H](O)C[S+]1C[C@@H](O)[C@H](OCc1ccccc1Cl)[C@H](O)[C@@H](O)CO.[Cl-] (stereo not given in full)
[b] OC[C@@H]1[C@@H](O)[C@H](O)C[S+]1C[C@@H](O)[C@H](OCc1ccccc1C(F)(F)F)[C@H](O)[C@@H](O)CO.[Cl-] (stereo not given in full)
Query: When their Ki values are compared, which is larger, a or b ? Answer by quoting the chosen item's label.
Response: a
(a: 0.45 µg/mL, b: 0.28 µg/mL)

----------
# ASSAY_PROCEDURE: Cytotoxicity against human HELF cells by MTT assay
# Format: cell-based
EXPERIMENTAL_ENDPOINT: IC50

Some compounds with known IC50 results, for comparison:
O=[N+]([O-])c1ccccc1CO[C@H]([C@H](O)[C@@H](O)CO)[C@H](O)C[S+]1C[C@@H](O)[C@H](O)[C@H]1CO.[Cl-] (stereo partly drawn) ... > 500 µM
OC[C@@H]1[C@@H](O)[C@H](O)C[S+]1C[C@@H](O)[C@H](OCc1ccccc1Cl)[C@H](O)[C@@H](O)CO.[Cl-] (stereo partly drawn) ... > 500 µM

Query: Answer with reported IC50 of OC[C@@H]1[C@@H](O)[C@H](O)C[S+]1C[C@@H](O)[C@H](OCc1ccccc1C(F)(F)F)[C@H](O)[C@@H](O)CO.[Cl-] (stereo partly drawn)
Response: > 500 µM
